Parameter: logD at 20 µM. Scope: all listed entries.
EXPERIMENTAL_DETAILS: Lipophilicity, logD of compound at 20 uM at pH 7.4 by HPLC/MS-MS analysis
Format: physicochemical
CONDITION_INFO: buffer
READOUT: logD at 20 µM

[[record]]
compound = "C[C@@]1(O)CC[C@H]2[C@H](CC[C@@H]3[C@@H]2CC[C@]2(C)[C@@H](C(=O)Cn4cc(C#N)cn4)CC[C@@H]32)C1 [ZURANOLONE]"
result = 4.6

[[record]]
compound = "C[C@@]1(O)CC[C@H]2[C@H](CC[C@@H]3[C@@H]2CC[C@]2(C)[C@@H](C(=O)Cn4ccc(C#N)n4)CC[C@@H]32)C1"
result = 4.6

[[record]]
compound = "C[C@@]1(O)CC[C@H]2[C@H](CC[C@@H]3[C@@H]2CC[C@]2(C)[C@@H](C(=O)Cn4cccn4)CC[C@@H]32)C1"
result = 4.6

[[record]]
compound = "Cc1cnn(CC(=O)[C@H]2CC[C@H]3[C@@H]4CC[C@@H]5C[C@](C)(O)CC[C@@H]5[C@H]4CC[C@]23C)c1"
result = 5


###

EXPERIMENTAL_DETAILS: Oral bioavailability in Sprague-Dawley rat at 20 mg/kg measured up to 8 hrs post dose by LC/MS-MS analysis
Assay type: ADME, organism-based
CONDITION_INFO: in vivo
READOUT: bioavailability

[[record]]
cpd_smiles = "C[C@@]1(O)CC[C@H]2[C@H](CC[C@@H]3[C@@H]2CC[C@]2(C)[C@@H](C(=O)Cn4nccn4)CC[C@@H]32)C1"
result = "25%"

[[record]]
cpd_smiles = "C[C@@]1(O)CC[C@H]2[C@H](CC[C@@H]3[C@@H]2CC[C@]2(C)[C@@H](C(=O)Cn4ccc(C#N)n4)CC[C@@H]32)C1"
result = "56%"

[[record]]
cpd_smiles = "C[C@@]1(O)CC[C@H]2[C@H](CC[C@@H]3[C@@H]2CC[C@]2(C)[C@@H](C(=O)Cn4cccn4)CC[C@@H]32)C1"
result = "19%"

[[record]]
cpd_smiles = "Cc1cnn(CC(=O)[C@H]2CC[C@H]3[C@@H]4CC[C@@H]5C[C@](C)(O)CC[C@@H]5[C@H]4CC[C@]23C)n1"
result = "6%"

[[record]]
cpd_smiles = "C[C@@]1(O)CC[C@H]2[C@H](CC[C@@H]3[C@@H]2CC[C@]2(C)[C@@H](C(=O)Cn4cc(C#N)cn4)CC[C@@H]32)C1"
result = "32%"

[[record]]
cpd_smiles = "CC(=O)[C@H]1CC[C@H]2[C@@H]3CC[C@H]4C[C@H](O)CC[C@]4(C)[C@H]3CC[C@]12C"
result = "2%"

[[record]]
cpd_smiles = "Cc1cnn(CC(=O)[C@H]2CC[C@H]3[C@@H]4CC[C@@H]5C[C@](C)(O)CC[C@@H]5[C@H]4CC[C@]23C)c1"
result = "9.5%"


###

SYSTEM_TESTED: Potassium voltage-gated channel subfamily A member 5 (Homo sapiens)
Sequence (P22460 whole entry): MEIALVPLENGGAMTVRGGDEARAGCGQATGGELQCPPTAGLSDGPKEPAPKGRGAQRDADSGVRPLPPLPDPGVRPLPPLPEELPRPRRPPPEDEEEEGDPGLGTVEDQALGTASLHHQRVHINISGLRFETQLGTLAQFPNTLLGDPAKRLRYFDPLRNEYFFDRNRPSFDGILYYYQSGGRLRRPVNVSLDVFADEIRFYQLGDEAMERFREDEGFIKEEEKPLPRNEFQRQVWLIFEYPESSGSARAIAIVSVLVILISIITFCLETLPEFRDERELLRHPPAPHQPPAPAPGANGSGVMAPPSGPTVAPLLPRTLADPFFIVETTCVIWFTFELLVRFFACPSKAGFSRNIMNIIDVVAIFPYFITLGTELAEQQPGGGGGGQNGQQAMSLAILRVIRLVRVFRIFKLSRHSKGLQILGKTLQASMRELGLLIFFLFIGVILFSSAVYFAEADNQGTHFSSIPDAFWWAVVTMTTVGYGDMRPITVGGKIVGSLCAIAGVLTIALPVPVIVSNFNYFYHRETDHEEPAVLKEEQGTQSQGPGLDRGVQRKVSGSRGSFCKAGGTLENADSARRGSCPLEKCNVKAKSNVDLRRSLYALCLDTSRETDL
EXPERIMENTAL_DETAILS: Inhibition of Kv1.5 (unknown origin) by patch clamp assay
READOUT: IC50

[[record]]
cpd_smiles = "C[C@@]1(O)CC[C@H]2[C@H](CC[C@@H]3[C@@H]2CC[C@]2(C)[C@@H](C(=O)Cn4cc(C#N)cn4)CC[C@@H]32)C1"
system_tested = "Potassium voltage-gated channel subfamily A member 5 (Homo sapiens)"
result = "> 30 µM"


###

Parameter: Emax. Scope: all listed entries.
SYSTEM_TESTED: GABA-A receptor alpha-4/beta-3/delta (Homo sapiens, UniProt P28472+P48169+)
Sequence (P28472 whole entry): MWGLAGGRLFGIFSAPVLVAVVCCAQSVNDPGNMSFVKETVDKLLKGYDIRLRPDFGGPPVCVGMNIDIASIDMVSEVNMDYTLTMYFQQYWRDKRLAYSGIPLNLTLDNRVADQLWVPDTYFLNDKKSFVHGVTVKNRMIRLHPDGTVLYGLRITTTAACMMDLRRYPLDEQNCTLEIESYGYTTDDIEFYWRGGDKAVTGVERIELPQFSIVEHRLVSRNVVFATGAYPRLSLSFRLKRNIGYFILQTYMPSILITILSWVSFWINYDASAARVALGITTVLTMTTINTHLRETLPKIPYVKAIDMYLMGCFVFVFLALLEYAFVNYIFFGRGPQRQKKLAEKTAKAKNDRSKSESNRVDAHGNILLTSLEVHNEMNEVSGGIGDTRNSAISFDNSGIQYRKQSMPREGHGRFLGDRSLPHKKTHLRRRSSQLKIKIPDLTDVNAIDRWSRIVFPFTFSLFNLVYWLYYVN
Sequence (P48169 whole entry): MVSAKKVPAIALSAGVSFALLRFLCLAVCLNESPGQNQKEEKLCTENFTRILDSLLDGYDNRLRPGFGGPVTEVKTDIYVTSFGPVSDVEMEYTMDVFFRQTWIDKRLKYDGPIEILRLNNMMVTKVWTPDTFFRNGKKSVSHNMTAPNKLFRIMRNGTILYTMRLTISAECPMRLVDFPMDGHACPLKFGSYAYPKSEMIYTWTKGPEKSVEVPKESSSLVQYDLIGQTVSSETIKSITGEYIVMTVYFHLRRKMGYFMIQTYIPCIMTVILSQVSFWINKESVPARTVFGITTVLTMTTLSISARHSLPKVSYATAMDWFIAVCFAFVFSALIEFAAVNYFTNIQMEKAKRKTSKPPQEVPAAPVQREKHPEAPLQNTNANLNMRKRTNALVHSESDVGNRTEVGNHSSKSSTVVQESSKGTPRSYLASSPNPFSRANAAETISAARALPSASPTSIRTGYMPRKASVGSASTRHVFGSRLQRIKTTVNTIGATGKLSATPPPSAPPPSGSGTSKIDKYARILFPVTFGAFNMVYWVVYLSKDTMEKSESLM
Sequence (Q06278 whole entry, further chain): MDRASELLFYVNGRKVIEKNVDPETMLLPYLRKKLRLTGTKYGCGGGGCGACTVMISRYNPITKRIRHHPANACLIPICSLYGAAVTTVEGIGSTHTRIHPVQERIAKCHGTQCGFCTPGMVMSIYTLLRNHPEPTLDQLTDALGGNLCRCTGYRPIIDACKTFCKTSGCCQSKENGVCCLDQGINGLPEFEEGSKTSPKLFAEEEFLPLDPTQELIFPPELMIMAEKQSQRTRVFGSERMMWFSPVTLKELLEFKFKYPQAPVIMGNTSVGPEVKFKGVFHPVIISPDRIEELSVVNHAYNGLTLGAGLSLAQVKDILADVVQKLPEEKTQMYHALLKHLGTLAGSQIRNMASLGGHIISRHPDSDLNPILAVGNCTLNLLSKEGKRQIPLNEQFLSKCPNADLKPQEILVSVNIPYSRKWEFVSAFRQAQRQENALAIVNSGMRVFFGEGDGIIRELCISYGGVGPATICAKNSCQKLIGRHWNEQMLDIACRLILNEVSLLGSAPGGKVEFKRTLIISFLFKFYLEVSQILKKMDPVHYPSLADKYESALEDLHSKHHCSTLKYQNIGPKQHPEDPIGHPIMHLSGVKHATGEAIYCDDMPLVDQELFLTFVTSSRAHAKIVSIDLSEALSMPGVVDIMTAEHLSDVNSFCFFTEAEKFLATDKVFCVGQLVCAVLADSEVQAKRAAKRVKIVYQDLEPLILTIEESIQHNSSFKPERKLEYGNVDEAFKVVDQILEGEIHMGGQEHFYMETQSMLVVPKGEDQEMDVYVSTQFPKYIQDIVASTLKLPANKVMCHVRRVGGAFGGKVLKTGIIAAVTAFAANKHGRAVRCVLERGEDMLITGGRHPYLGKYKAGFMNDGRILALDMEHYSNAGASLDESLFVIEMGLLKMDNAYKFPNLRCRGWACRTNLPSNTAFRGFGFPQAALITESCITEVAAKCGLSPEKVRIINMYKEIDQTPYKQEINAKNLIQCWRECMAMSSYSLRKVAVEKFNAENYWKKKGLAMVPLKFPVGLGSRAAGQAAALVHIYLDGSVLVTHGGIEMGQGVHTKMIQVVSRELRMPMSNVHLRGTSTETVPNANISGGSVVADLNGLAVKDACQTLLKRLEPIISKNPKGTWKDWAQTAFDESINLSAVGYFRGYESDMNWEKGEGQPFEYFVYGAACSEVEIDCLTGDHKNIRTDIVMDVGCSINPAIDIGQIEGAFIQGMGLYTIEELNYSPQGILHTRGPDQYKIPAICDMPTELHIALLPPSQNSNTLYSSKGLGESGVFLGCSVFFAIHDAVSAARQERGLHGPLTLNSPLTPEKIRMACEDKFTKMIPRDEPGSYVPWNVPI
EXPERIMENTAL_DETAILS: Positive allosteric modulation of GABAA receptor alpha4beta3delta (unknown origin) expressed in CHO cells assessed as potentiation of GABA-mediated increase in channel current under holding potential at -80 mV at 0.01 to 10 uM preincubated for 30 secs followed by GABA stimulation for 2 secs by manual patch clamp assay relative to GABA
Assay type: cell-based
CONDITION_INFO: 2 s
READOUT: Emax (%)

[[record]]
cpd_smiles = "COc1cnn(CC(=O)[C@H]2CC[C@H]3[C@@H]4CC[C@@H]5C[C@](C)(O)CC[C@@H]5[C@H]4CC[C@]23C)c1"
system_tested = "GABA-A receptor alpha-4/beta-3/delta (Homo sapiens, UniProt P28472+P48169+)"
readout = "Emax"
measured_number = 750

[[record]]
cpd_smiles = "C[C@@]1(O)CC[C@H]2[C@H](CC[C@@H]3[C@@H]2CC[C@]2(C)[C@@H](C(=O)Cn4cccn4)CC[C@@H]32)C1"
system_tested = "GABA-A receptor alpha-4/beta-3/delta (Homo sapiens, UniProt P28472+P48169+)"
readout = "Emax"
measured_number = 583

[[record]]
cpd_smiles = "COC[C@@]1(O)CC[C@H]2[C@H](CC[C@@H]3[C@@H]2CC[C@]2(C)[C@@H](C(=O)Cn4cc(C#N)cn4)CC[C@@H]32)C1"
system_tested = "GABA-A receptor alpha-4/beta-3/delta (Homo sapiens, UniProt P28472+P48169+)"
readout = "Emax"
measured_number = 610


###

SYSTEM_TESTED: Potassium/sodium hyperpolarization-activated cyclic nucleotide-gated channel 2 (Homo sapiens)
Sequence (Q9UL51 whole entry): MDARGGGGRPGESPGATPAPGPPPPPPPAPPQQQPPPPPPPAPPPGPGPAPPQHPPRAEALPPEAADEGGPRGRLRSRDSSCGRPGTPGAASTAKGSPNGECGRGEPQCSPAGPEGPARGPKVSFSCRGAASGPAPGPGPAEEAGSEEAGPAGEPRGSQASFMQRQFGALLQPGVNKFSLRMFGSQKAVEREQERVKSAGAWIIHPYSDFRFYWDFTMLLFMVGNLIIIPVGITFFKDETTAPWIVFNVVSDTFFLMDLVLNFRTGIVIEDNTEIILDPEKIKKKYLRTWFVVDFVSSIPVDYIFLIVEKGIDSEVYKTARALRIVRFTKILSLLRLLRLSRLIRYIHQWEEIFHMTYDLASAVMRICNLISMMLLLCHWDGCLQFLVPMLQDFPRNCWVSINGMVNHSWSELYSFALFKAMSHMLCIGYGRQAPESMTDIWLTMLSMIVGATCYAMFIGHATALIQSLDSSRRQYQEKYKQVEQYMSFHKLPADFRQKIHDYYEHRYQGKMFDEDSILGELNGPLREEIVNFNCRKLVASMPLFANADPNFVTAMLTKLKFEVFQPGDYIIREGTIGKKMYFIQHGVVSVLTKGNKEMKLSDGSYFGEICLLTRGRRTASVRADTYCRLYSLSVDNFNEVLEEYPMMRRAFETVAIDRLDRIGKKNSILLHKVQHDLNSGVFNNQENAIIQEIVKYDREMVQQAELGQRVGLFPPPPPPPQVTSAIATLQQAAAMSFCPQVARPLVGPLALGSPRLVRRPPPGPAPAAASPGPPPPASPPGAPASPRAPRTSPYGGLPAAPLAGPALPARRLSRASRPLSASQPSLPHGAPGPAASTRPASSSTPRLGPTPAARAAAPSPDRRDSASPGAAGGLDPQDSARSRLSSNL
EXPERIMENTAL_DETAILS: Inhibition of HCN2 (unknown origin) by patch clamp assay
READOUT: IC50

[[record]]
compound = "C[C@@]1(O)CC[C@H]2[C@H](CC[C@@H]3[C@@H]2CC[C@]2(C)[C@@H](C(=O)Cn4cc(C#N)cn4)CC[C@@H]32)C1 [ZURANOLONE]"
readout = "IC50"
result = "> 30 µM"


###

SYSTEM_TESTED: Cytochrome P450 2C19 (Homo sapiens, UniProt P33261)
Sequence (P33261 whole entry): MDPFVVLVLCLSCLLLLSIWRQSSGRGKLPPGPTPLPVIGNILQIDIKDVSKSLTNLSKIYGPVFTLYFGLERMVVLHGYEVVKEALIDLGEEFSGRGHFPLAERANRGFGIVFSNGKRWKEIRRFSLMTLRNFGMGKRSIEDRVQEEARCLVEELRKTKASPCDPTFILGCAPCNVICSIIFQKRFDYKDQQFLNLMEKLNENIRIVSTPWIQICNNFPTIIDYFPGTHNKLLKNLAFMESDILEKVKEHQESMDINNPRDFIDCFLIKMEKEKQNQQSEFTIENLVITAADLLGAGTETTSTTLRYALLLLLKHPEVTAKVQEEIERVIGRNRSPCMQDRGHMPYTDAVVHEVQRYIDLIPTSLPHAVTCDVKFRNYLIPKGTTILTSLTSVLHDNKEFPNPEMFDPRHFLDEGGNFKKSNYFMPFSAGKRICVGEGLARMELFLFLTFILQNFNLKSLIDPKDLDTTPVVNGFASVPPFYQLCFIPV
READOUT: IC50

[[record]]
molecule = "C[C@@]1(O)CC[C@H]2[C@H](CC[C@@H]3[C@@H]2CC[C@]2(C)[C@@H](C(=O)Cn4cc(C#N)cn4)CC[C@@H]32)C1 [ZURANOLONE]"
result = "> 30 µM"


###

EXPERIMENTAL_DETAILS: Thermodynamic aqueous solubility of compound at 10 uM sonicated for 1 min followed by incubation for 1 hr by HPLC-MS/MS
Assay type: physicochemical
CONDITION_INFO: buffer; read-out: Therm_solubility
Please note: Yes applies when solubility thermodynamic at 1 h, 10 µM is 3 µM or greater, and No applies otherwise.

[[record]]
cpd_smiles = "C[C@@]1(O)CC[C@H]2[C@H](CC[C@@H]3[C@@H]2CC[C@]2(C)[C@@H](C(=O)Cn4nccn4)CC[C@@H]32)C1"
classification = "Yes"

[[record]]
cpd_smiles = "C[C@@]1(O)CC[C@H]2[C@H](CC[C@@H]3[C@@H]2CC[C@]2(C)[C@@H](C(=O)Cn4cc(C#N)cn4)CC[C@@H]32)C1"
classification = "No"

[[record]]
cpd_smiles = "CC(=O)[C@H]1CC[C@H]2[C@@H]3CC[C@H]4C[C@H](O)CC[C@]4(C)[C@H]3CC[C@]12C"
classification = "Yes"

[[record]]
cpd_smiles = "C[C@@]1(O)CC[C@H]2[C@H](CC[C@@H]3[C@@H]2CC[C@]2(C)[C@@H](C(=O)Cn4cccn4)CC[C@@H]32)C1"
classification = "Yes"

[[record]]
cpd_smiles = "Cc1cnn(CC(=O)[C@H]2CC[C@H]3[C@@H]4CC[C@@H]5C[C@](C)(O)CC[C@@H]5[C@H]4CC[C@]23C)n1"
classification = "Yes"

[[record]]
cpd_smiles = "C[C@@]1(O)CC[C@H]2[C@H](CC[C@@H]3[C@@H]2CC[C@]2(C)[C@@H](C(=O)Cn4ccc(C#N)n4)CC[C@@H]32)C1"
classification = "No"

[[record]]
cpd_smiles = "Cc1cnn(CC(=O)[C@H]2CC[C@H]3[C@@H]4CC[C@@H]5C[C@](C)(O)CC[C@@H]5[C@H]4CC[C@]23C)c1"
classification = "Yes"

